assay: NCI Yeast Anticancer Drug Screen. Data for the bub3 strain (AID 167); details: S. cerevisiae bub3 mutant strain, at 50.0 µM, stronger effect = higher value
The panel holds about 79,000 compounds, 15% with a hit somewhere; the sample as a whole holds those more often.
measurement-kind: growth inhibition (%)
Give bare numbers, in %.

Study these solved cases before continuing.
compound=COC(=O)C(C#N)(CCC(=O)c1ccccc1)CCC(=O)c1ccccc1 measurement_kind="growth inhibition" experimental_value=17.8
compound=O=S(=O)(O)c1cc(O)c(N=NC2S(=O)(=O)OCCOS2(=O)=O)c2ccccc12 measurement_kind="growth inhibition" experimental_value=16.8
compound="C=CCC1CCC/C1=N\\O (stereo unspecified)" measurement_kind="growth inhibition" experimental_value=-3.15
compound=Clc1ccc(C2=NCCO2)cc1 measurement_kind="growth inhibition" experimental_value=4.85
compound=COC(=O)CC(=O)C[P+](c1ccccc1)(c1ccccc1)c1ccccc1 measurement_kind="growth inhibition" experimental_value=-18.1

Asked: // returns reported growth inhibition for input O=c1[nH]c(=O)n(C2OC(CO)C(O)C2O)cc1Oc1ccccc1 (stereo unspecified)
Given back: -0.4
